Test system: Wnt activity (Sp5-Luc reporter, Wnt-responsive promoter) in SW480 colon carcinoma cells
assay.method.text: Wnt activity screening assay: Sp5-Luc reporter gene assay in SW480 cells
Type: cell-based
test.parameters: Homo sapiens, overnight incubation, 10-point curve starting from 10 μM
This listing pairs compounds with measured EC50.
Your answer is read as nM, so omit the unit and give the number.

Reference set (5 entries):
c1csc(-c2cccc3[nH]c(-c4n[nH]c5ccc(-c6ccncc6)nc45)nc23)c1 [Compound 354] | 3770
C1=C(c2ccc3[nH]nc(-c4nc5c(-c6ccc7c(c6)OCO7)cccc5[nH]4)c3n2)CCNC1 [Compound 1109] | 1080
Cc1ncc(-c2ccc3[nH]nc(-c4nc5c(-c6ccoc6)cccc5[nH]4)c3n2)n1C [Compound 685] | 257
Oc1cncc(-c2ccc3[nH]nc(-c4nc5c(-c6cccc(F)c6)cccc5[nH]4)c3n2)c1 [Compound 517] | 6550
COc1cncc(-c2ccc3[nH]nc(-c4nc5c(N6CCCCC6)cccc5[nH]4)c3n2)c1 [Compound 612] | 3770

Identify EC50 associated with the compound CN1CCN(c2cccc3[nH]c(-c4n[nH]c5ccc(-c6cncc(NC(=O)C7CCCC7)c6)nc45)nc23)CC1 [Compound 246]
8530

Identify EC50 associated with the compound CCC(=O)Nc1cncc(-c2ccc3[nH]nc(-c4nc5c(-c6cccc(F)c6)cccc5[nH]4)c3n2)c1 [Compound 1]
1360

Identify EC50 associated with the compound Cn1cc(-c2ccc3[nH]nc(-c4nc5c(-c6cccc(F)c6)cccc5[nH]4)c3n2)cn1 [Compound 508]
518

Identify EC50 associated with the compound Cc1cn(-c2cccc3[nH]c(-c4n[nH]c5ccc(-c6cncc(NC(=O)CC(C)C)c6)nc45)nc23)cn1 [Compound 198]
1040

Identify EC50 associated with the compound CS(=O)(=O)NCc1cc(F)cc(-c2cccc3[nH]c(-c4n[nH]c5ccc(-c6cncc(CNCc7ccccc7)c6)nc45)nc23)c1 [Compound 500]
2340

Identify EC50 associated with the compound Cc1cn(-c2cccc3[nH]c(-c4n[nH]c5ccc(-c6cncc(CN7CCCC7)c6)nc45)nc23)cn1 [Compound 210]
4110

Identify EC50 associated with the compound c1cncc(-c2cccc3[nH]c(-c4n[nH]c5ccc(-c6cncc(OC7CCCCC7)c6)nc45)nc23)c1 [Compound 559]
3140

Identify EC50 associated with the compound CC(C)Nc1cncc(-c2ccc3[nH]nc(-c4nc5c(-c6cc(F)cc(NCCN(C)C)c6)cccc5[nH]4)c3n2)c1 [Compound 460]
1050

Identify EC50 associated with the compound CN(C)c1cncc(-c2ccc3[nH]nc(-c4nc5c(N6CCCCC6)cccc5[nH]4)c3n2)c1 [Compound 175]
2130

Identify EC50 associated with the compound c1ccc(CNCc2cncc(-c3ccc4[nH]nc(-c5nc6c(-c7cccnc7)cccc6[nH]5)c4n3)c2)cc1 [Compound 108]
2300

Identify EC50 associated with the compound CCC(=O)Nc1cncc(-c2ccc3[nH]nc(-c4nc5c(N6CCCCC6)cccc5[nH]4)c3n2)c1 [Compound 169]
3800

Identify EC50 associated with the compound CN(C)Cc1cncc(-c2ccc3[nH]nc(-c4nc5c(-c6cccs6)cccc5[nH]4)c3n2)c1 [Compound 349]
4100

Identify EC50 associated with the compound CCCCC(=O)Nc1cncc(-c2ccc3[nH]nc(-c4nc5c(-c6cc(F)cc(NCCN(C)C)c6)cccc5[nH]4)c3n2)c1 [Compound 467]
1300

Identify EC50 associated with the compound Cc1cn(-c2cccc3[nH]c(-c4n[nH]c5ccc(-c6cncc(NC(=O)C(C)(C)C)c6)nc45)nc23)cn1 [Compound 204]
1240

Identify EC50 associated with the compound Cc1ncc(-c2ccc3[nH]nc(-c4nc5c(-c6cccc(F)c6)cccc5[nH]4)c3n2)n1C [Compound 509]
160

Identify EC50 associated with the compound Fc1cccc(-c2cccc3[nH]c(-c4n[nH]c5ccc(-c6cncc(CN7CCC(F)(F)C7)c6)nc45)nc23)c1 [Compound 26]
2100

Data origin, for the record: patent US10392383B2
